This collection of values is drawn from the RNAGym collection of RNA variant scans (doi:10.7554/elife.90254).

B1: LINE1-mini (parent)
chain: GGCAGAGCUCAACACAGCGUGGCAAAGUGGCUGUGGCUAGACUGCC

variants of: B1; experiment: self-cleavage, relative activity (ratio to wild type); higher = more cleavage; in vitro, sequencing; the parent is a self-cleaving ribozyme
Can you tell me self-cleavage for the items I'm about to list?
Would you mind answering with just the numeric figure?

Bench note: what self-cleavage did C37G A41G show? 0.03

# self-cleavage lookup, item G5C U20A 0.04

Which self-cleavage is listed for A14C C42U ? 0.07

Give its self-cleavage value. Item: U9G A39G 0.08

Recorded self-cleavage for G5U G40U , please? 0.09

# self-cleavage lookup, item A11G C15U 0.03

Requested field: self-cleavage. Item: C13A G17C 0.1

What value of self-cleavage has been reported for the following variant? A16U A26C 0.06

// returns reported self-cleavage for input A26C G30U 1.45

Using the record for A26G U43G , report its self-cleavage. 0.03

Please look up its self-cleavage: A11G C46G 0.02

Request the reported self-cleavage associated with G27U G33C 0.07

Quick check: self-cleavage of A26C G35A ? 0.18

Would you mind telling me what self-cleavage value was observed for G7C C42G ? 0.1

Entry A14U U43G : reported self-cleavage = ? 0.35

Reported self-cleavage, variant A4C C42G : ____ 0.05

Find the recorded self-cleavage belonging to C18A G33U and report it. 0.04

What does the data say about its self-cleavage? Entry: G17U G30U 0.16

Name the reported self-cleavage value associated with the variant U9C G21C 0.06
